Origin of measurements: patent US20240116985A1

# tested-on: full-length beta-Catenin (Uniprot ID P35222) (Homo sapiens)
# Construct: 10 nM full-length beta-Catenin (Uniprot ID P35222)
# test-description: Fluorescence polarization IC50 (beta-catenin / 5FAM-TCF4 10-53 competition)
# Assay type: binding
# run-conditions: fluorescence polarization; read-out: beta-Catenin FP IC50
pIC50: −log10 of the molar value.
The following compounds are listed with their measured pIC50 values.
value-kind: pIC50

compound	tested-on	endpoint-result
CC(=O)N1CCC[C@]12CC=CCCCC1(CCCC=CCCCOC(=O)N3CC[C@@](C(=O)N[C@@H](Cc4ccsc4)C(=O)N[C@@H](Cc4csc5ccccc45)C(=O)N[C@@H](CC(N)=O)C(=O)N[C@@H](C)C(=O)N[C@@H](CC(C)C)C(=O)N[C@@H](CC(C)C)C(N)=O)(C3)NC(=O)[C@H](CC(C)C)NC(=O)[C@H](Cc3ccccc3)NC(=O)[C@H](C)NC(=O)[C@H](C)NC(=O)[C@H](Cc3cccc(C(=O)O)c3)NC(=O)[C@H](CC(=O)O)NC1=O)NC(=O)[C@H](CC(C)(C)C)NC(=O)[C@H](CC(=O)O)NC2=O (some centres unmarked) [I-2277]	full-length beta-Catenin (Uniprot ID P35222) (Homo sapiens)	6.94
CC(=O)N1CCC[C@]12CC=CCCCC1(CCCC=CCCCCCC[C@@](C)(C(=O)N[C@@H](CC3CCCC3)C(=O)N[C@@H](Cc3csc4ccccc34)C(=O)N[C@@H](CCC(N)=O)C(N)=O)NC(=O)[C@H](C(C)C)NC(=O)[C@H](Cc3ccccc3)NC(=O)[C@H](C)NC(=O)[C@H](C)NC(=O)[C@H](CCC(=O)O)NC(=O)[C@H](CC(=O)O)NC1=O)NC(=O)[C@H](C)NC(=O)[C@H](CC(=O)O)NC2=O (some centres unmarked) [I-393]	full-length beta-Catenin (Uniprot ID P35222) (Homo sapiens)	5.71

----------
# tested-on: beta-catenin/TCF4 engagement (Homo sapiens)
# Construct: expressed in transfected cells; host or cells: HEK293
# Sequence (P35222 1-781): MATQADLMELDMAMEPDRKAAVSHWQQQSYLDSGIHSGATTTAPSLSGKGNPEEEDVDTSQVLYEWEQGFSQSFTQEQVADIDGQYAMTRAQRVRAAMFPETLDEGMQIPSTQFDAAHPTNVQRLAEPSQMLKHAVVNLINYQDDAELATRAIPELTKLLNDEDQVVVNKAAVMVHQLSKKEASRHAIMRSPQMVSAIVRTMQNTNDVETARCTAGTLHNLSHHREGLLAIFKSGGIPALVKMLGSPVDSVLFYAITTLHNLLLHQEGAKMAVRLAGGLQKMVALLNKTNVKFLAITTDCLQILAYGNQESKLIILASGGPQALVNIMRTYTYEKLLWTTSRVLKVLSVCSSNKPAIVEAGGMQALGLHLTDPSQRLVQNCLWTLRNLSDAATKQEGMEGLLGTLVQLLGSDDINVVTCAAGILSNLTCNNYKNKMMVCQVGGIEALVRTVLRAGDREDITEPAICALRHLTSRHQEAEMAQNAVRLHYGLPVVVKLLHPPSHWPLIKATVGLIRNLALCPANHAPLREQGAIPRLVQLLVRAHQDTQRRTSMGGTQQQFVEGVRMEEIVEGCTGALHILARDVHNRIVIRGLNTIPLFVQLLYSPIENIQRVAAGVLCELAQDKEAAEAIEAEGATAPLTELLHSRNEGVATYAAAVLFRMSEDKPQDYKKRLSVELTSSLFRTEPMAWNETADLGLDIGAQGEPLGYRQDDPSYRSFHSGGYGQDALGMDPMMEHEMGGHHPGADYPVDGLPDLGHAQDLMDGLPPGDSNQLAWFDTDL
# test-description: Nano-BRET target engagement assay (B-cat-Halo & TCF4-Luc in HEK293 cells)
# Type: cell-based
# run-conditions: absolute IC50; read-out: NanoBRET Abs IC50
Measured IC50 accompanies every entry in the list below.

compound	IC50
CC(=O)N1CCC[C@]12CC=CCCCC1(CCCC=CCCCOC(=O)N3CC[C@@](C(=O)N[C@@H](Cc4ccccc4Cl)C(=O)N[C@@H](Cc4csc5ccccc45)C(=O)N[C@@H](C(N)=O)[C@H](C)O)(C3)NC(=O)[C@H](CO)NC(=O)[C@H](Cc3ccccc3)NC(=O)[C@H](C)NC(=O)[C@H](C)NC(=O)[C@H](CC(=O)O)NC(=O)[C@H](CC(=O)O)NC1=O)NC(=O)[C@H](Cc1ccccc1)NC(=O)[C@H](CC(=O)O)NC2=O (stereo partly drawn) [I-1142]	> 20 µM
CC(=O)N1CCC[C@]12CC=CCCCC1(CCCC=CCCCOC(=O)N3CC[C@@](C(=O)N[C@@H](Cc4ccccc4)C(=O)N[C@@H](Cc4csc5ccccc45)C(=O)N[C@@H](CCC(N)=O)C(N)=O)(C3)NC(=O)[C@H](CC(C)C)NC(=O)[C@H](Cc3ccccc3)NC(=O)[C@H](C)NC(=O)[C@H](CCCCNC(C)C)NC(=O)[C@H](Cc3cccc(C(=O)O)c3)NC(=O)[C@H](CC(=O)O)NC1=O)NC(=O)[C@H](CC1CCCCC1)NC(=O)[C@H](CC(N)=O)NC2=O (stereo partly drawn) [I-2340]	> 20 µM
CC(=O)N1CCC[C@]12CC=CCCCC1(CCCC=CCCCOC(=O)N3CC[C@@](C(=O)N[C@@H](Cc4ccsc4)C(=O)N[C@@H](Cc4csc5ccccc45)C(=O)N[C@@H](CCC(N)=O)C(N)=O)(C3)NC(=O)[C@H](CC(N)=O)NC(=O)[C@H](Cc3ccccc3)NC(=O)[C@H](C)NC(=O)[C@H](C)NC(=O)[C@H](CC(=O)O)NC(=O)[C@H](CC(=O)O)NC1=O)NC(=O)[C@H](CC(C)C)NC(=O)[C@H](CC(=O)O)NC2=O (stereo partly drawn) [I-688]	30.1 µM

----------
# test-description: Solubility in PBS
# Format: physicochemical
Measured Solubility of individual entries

compound	Solubility
CC(=O)N1CCC[C@]12CC=CCCCC1(CCCC=CCCCCCC[C@@](C)(C(=O)N[C@@H](Cc3ccccc3Cl)C(=O)N[C@@H](Cc3csc4ccccc34)C(=O)N[C@@H](C(N)=O)[C@H](C)O)NC(=O)[C@H]([C@@H](C)O)NC(=O)[C@H](Cc3ccccc3)NC(=O)[C@H](C)NC(=O)[C@H](C)NC(=O)[C@H](CCC(=O)O)NC(=O)[C@H](CC(=O)O)NC1=O)NC(=O)[C@H](CC(C)(C)C)NC(=O)[C@H](CC(=O)O)NC2=O (stereo partly drawn) [I-1093]	48 µM
CC(=O)N1CCC[C@]12CC=CCCCC1(CCCC=CCCCCCC[C@@](C)(C(=O)N[C@@H](Cc3ccccc3)C(=O)N[C@@H](Cc3csc4ccccc34)C(=O)N[C@@H](CCC(N)=O)C(N)=O)NC(=O)[C@H](CC(N)=O)NC(=O)[C@H](Cc3ccsc3)NC(=O)[C@H](C)NC(=O)[C@H](C)NC(=O)[C@H](CCC(=O)O)NC(=O)[C@H](CC(=O)O)NC1=O)NC(=O)[C@H](C)NC(=O)[C@H](CC(=O)O)NC2=O (stereo partly drawn) [I-448]	50 µM
CC(=O)N1CCC[C@]12CC=CCCCC1(CCCC=CCCCCCC[C@@](C)(C(=O)N[C@@H](Cc3ccccc3)C(=O)N[C@@H](Cc3csc4ccccc34)C(N)=O)NC(=O)[C@H](CC(N)=O)NC(=O)[C@H](Cc3ccccc3)NC(=O)[C@H](C)NC(=O)[C@H](C)NC(=O)[C@H](CCC(=O)O)NC(=O)[C@H](CC(=O)O)NC1=O)NC(=O)[C@H](CC(C)(C)C)NC(=O)[C@H](CC(=O)O)NC2=O (stereo partly drawn) [I-713]	48 µM

----------
# tested-on: full-length B-Catenin (Uniprot ID P35222) (Homo sapiens)
# Construct: 65 nM full-length B-Catenin (Uniprot ID P35222)
# Sequence (P35222 1-781): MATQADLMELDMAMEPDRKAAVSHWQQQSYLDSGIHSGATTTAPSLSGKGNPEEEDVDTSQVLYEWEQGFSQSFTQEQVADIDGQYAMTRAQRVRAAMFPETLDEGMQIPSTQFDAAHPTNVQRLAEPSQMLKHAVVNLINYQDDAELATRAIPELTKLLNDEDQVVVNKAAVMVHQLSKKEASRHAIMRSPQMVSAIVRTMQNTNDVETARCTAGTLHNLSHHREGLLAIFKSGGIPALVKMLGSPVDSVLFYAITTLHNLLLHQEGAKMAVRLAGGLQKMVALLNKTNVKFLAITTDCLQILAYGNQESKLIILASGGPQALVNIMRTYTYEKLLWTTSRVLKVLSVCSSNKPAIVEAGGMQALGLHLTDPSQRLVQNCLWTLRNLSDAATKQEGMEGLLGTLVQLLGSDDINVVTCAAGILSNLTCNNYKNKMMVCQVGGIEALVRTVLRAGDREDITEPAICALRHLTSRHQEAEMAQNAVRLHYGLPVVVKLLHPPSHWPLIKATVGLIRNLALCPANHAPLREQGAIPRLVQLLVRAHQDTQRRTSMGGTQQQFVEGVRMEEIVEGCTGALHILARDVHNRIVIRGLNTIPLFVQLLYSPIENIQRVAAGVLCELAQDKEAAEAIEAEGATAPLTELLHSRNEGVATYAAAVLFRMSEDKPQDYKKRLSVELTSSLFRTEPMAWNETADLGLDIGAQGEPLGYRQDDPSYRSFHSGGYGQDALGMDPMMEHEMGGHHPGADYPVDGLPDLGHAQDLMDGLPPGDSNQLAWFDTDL
# test-description: Alphascreen binding assay (beta-catenin / biotin-TCF4 10-53)
Items are presented alongside their recorded EC50.

compound	EC50 (µM)
CC(=O)N1CCC[C@]12CC=CCCCC1(CCCC=CCCCCCC[C@@](C)(C(=O)N[C@@H](Cc3ccccc3)C(=O)N[C@@H](Cc3c[nH]c4ccccc34)C(=O)N[C@@H](Cc3c[nH]cn3)C(N)=O)NC(=O)[C@H](CCC(N)=O)NC(=O)[C@H](Cc3ccccc3)NC(=O)[C@H](C)NC(=O)[C@H](C)NC(=O)[C@H](CCC(=O)O)NC(=O)[C@H](CC(=O)O)NC1=O)NC(=O)[C@H](C)NC(=O)[C@H](CC(=O)O)NC2=O (stereo partly drawn)	0.152
CC(=O)N1CCC[C@]12CC=CCCCC1(CCCC=CCCCCCC[C@@](C)(C(=O)N[C@@H](Cc3ccc(C(F)(F)F)cc3)C(=O)N[C@@H](Cc3c[nH]c4ccccc34)C(=O)N[C@@H](CCC(N)=O)C(N)=O)NC(=O)[C@H](C(C)C)NC(=O)[C@H](Cc3ccccc3)NC(=O)[C@H](C)NC(=O)[C@H](C)NC(=O)[C@H](CC(=O)O)NC(=O)[C@H](CC(=O)O)NC1=O)NC(=O)[C@H](C)NC(=O)[C@H](CC(=O)O)NC2=O (stereo partly drawn) [I-253]	3.69
CC(=O)N[C@@H](Cc1ccccc1)C(=O)N[C@@H](CC(=O)O)C(=O)N[C@@H](C)C(=O)N[C@]1(C)CCCCCCC=CCOC(=O)N2CC[C@@](C(=O)N[C@@H](Cc3c(F)c(F)c(F)c(F)c3F)C(=O)N[C@@H](Cc3c[nH]c4ccccc34)C(=O)N[C@@H](CCC(N)=O)C(N)=O)(C2)NC(=O)[C@H](C(C)C)NC(=O)[C@H](Cc2ccccc2)NC(=O)[C@H](C)NC(=O)[C@H](C)NC(=O)[C@H](CC(=O)O)NC(=O)[C@H](CC(=O)O)NC1=O [I-228]	5.91
